Provenance of the data: patent US9505749B2

The listing below reports log10 IC50 for compounds tested on 6×HIS-tankyrase 2 (946-1162) (Homo sapiens (Human), UniProt Q9H2K2).
Sequence (Q9H2K2 946-1162): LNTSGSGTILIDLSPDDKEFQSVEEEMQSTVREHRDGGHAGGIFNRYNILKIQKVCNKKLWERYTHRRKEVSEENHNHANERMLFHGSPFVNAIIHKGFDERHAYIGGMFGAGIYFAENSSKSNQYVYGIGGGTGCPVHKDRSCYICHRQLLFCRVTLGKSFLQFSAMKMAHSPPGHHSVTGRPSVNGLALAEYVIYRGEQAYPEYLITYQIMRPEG
Values reflect log10 of reported IC50 (µM).

A selection of reference data follows.
[[record]]
compound = "O=C(CCCc1nc2ccccc2c(=O)[nH]1)N1CCC(c2nnc(-c3ccccc3F)o2)CC1 [Example 18]"
system = "6×HIS-tankyrase 2 (946-1162) (Homo sapiens (Human), UniProt Q9H2K2)"
assay_result = -1.68

[[record]]
compound = "O=C(CCc1nc2ccccc2c(=O)[nH]1)N[C@H]1CC[C@H](c2nnc(Cc3ccccc3)o2)CC1 [Example 139]"
system = "6×HIS-tankyrase 2 (946-1162) (Homo sapiens (Human), UniProt Q9H2K2)"
assay_result = -0.20

[[record]]
compound = "O=C(CCCc1nc2ccccc2c(=O)[nH]1)N[C@H]1CC[C@H](c2nnc(-c3cccc(Cl)c3)o2)CC1 [Example 36, 2,2,2-trifluoroacetate]"
system = "6×HIS-tankyrase 2 (946-1162) (Homo sapiens (Human), UniProt Q9H2K2)"
assay_result = -3.57

[[record]]
compound = "O=C(CCCc1nc2ccccc2c(=O)[nH]1)N1CCC(c2nnc(-c3cnccn3)o2)CC1 [Example 14]"
system = "6×HIS-tankyrase 2 (946-1162) (Homo sapiens (Human), UniProt Q9H2K2)"
assay_result = -1.81

[[record]]
compound = "O=C(CC[S+]([O-])c1nc2ccccc2c(=O)[nH]1)N[C@H]1CC[C@H](c2nnc(-c3ccccc3)o2)CC1 (stereo partly drawn) [Example 143]"
system = "6×HIS-tankyrase 2 (946-1162) (Homo sapiens (Human), UniProt Q9H2K2)"
assay_result = -1.28


Next compound, log10 IC50 to be filled in.
Q: I'd like to know its log10 IC50. The compound in question is COc1cccc(-c2nnc([C@H]3CC[C@H](NC(=O)CCCc4nc5ccccc5c(=O)[nH]4)CC3)o2)c1 [Example 32]
A: -3.52

====

Tested on: Axin2 accumulation in SW480 cells
Experiment: Axin2 384 immunofluorescence assay
Assay type: cell-based
Conditions: Homo sapiens; SW480 cells, 24 hours; read-out: Axin2 384 IF EC50
Provide the reported pEC50 of each item.
One number for each entry, as −log10 of the molar value.

Answered cases to consult:
[[record]]
compound = "O=C(CCCc1nc2ccccc2c(=O)[nH]1)N1CCC(c2nnc(-c3ccc(F)cc3)o2)CC1 [Example 6]"
assay_result = 6.61

[[record]]
compound = "O=C(CCSc1nc2ccccc2c(=O)[nH]1)N[C@H]1CC[C@H](Oc2ccc(Cl)cc2)CC1 [Example 105]"
assay_result = 7.44


Lab note: each compound below needs its pEC50 filled in.
1. O=C(CCCc1nc2ccccc2c(=O)[nH]1)N1CCC(c2nnc(-c3ccccc3F)o2)CC1 [Example 18]
2. N#Cc1cccc(O[C@H]2CC[C@H](NC(=O)CCSc3nc4ccccc4c(=O)[nH]3)CC2)c1 [Example 109]
3. O=C(CCCc1nc2ccccc2c(=O)[nH]1)N1CCC(n2c(=O)oc3ccccc32)CC1 [Example 44]
4. O=C(CCc1nc2ccccc2c(=O)[nH]1)N[C@H]1CC[C@H](c2nnc(-c3cccc(Cl)c3)o2)CC1 [Example 130]
5. N#Cc1ccc(O[C@H]2CC[C@H](NC(=O)CCSc3nc4ccccc4c(=O)[nH]3)CC2)cc1 [Example 106]
6. Cn1c(=O)n(C2CCN(C(=O)CCCc3nc4ccccc4c(=O)[nH]3)CC2)c2ccccc21 [Example 54]
7. O=C(CCCc1nc2ccccc2c(=O)[nH]1)N[C@H]1CC[C@H](Oc2ccc(Cl)cc2)CC1 [Example 79]

A:
1. 6.14
2. 7.29
3. 5.53
4. 6.62
5. 8.40
6. 5.44
7. 6.72

Hi there! I need pEC50 for each item below, if you can.
1. COc1ccc(-c2nnc(C3CCN(C(=O)CCCc4nc5ccccc5c(=O)[nH]4)CC3)o2)cc1 [Example 15]
2. O=C(CCCc1nc2ccccc2c(=O)[nH]1)N1CCN(c2n[nH]c3ccccc23)CC1 [Example 55]
3. COc1ccc2c(c1)[nH]c(=O)n2C1CCN(C(=O)CCCc2nc3ccccc3c(=O)[nH]2)CC1 [Example 8]
4. O=C(CCCc1nc2ccccc2c(=O)[nH]1)N[C@H]1CC[C@H](c2nnc(-c3ccncc3)o2)CC1 [Example 33]
5. N#Cc1ccc2c(c1)[nH]c(=O)n2[C@H]1CC[C@H](NC(=O)CSc2nc3ccccc3c(=O)[nH]2)CC1 [Example 103]

A:
1: 6.90; 2: 6.71; 3: 7.09; 4: 7.59; 5: 6.70

====

In what follows, each item is paired with its IC50 for PARP2 (Homo sapiens (Human), UniProt Q9UGN5).
Answers are plain numbers, in nM.

Example cases with answers are listed next.
[[record]]
compound = "Cc1ccc(-c2nnc(C3CCN(C(=O)CCCc4nc5ccccc5c(=O)[nH]4)CC3)o2)cc1 [Example 23]"
system = "PARP2 (Homo sapiens (Human), UniProt Q9UGN5)"
assay_result = 455

[[record]]
compound = "N#Cc1ccc(-c2nnc([C@H]3CC[C@H](NC(=O)CCc4nc5ccccc5c(=O)[nH]4)CC3)o2)cc1 [Example 134]"
system = "PARP2 (Homo sapiens (Human), UniProt Q9UGN5)"
assay_result = 2110

[[record]]
compound = "O=C(CCCc1nc2ccccc2c(=O)[nH]1)N1CCC(c2nnc(-c3ccc(F)c(Cl)c3)o2)CC1 [Example 25]"
system = "PARP2 (Homo sapiens (Human), UniProt Q9UGN5)"
assay_result = 1360

[[record]]
compound = "O=C(CCCc1nc2ccccc2c(=O)[nH]1)N1CCC(n2c(=O)oc3ccccc32)CC1 [Example 44]"
system = "PARP2 (Homo sapiens (Human), UniProt Q9UGN5)"
assay_result = 363


I have 2 compounds here; please give me IC50 for each one.
1. O=C(CCSc1nc2ccccc2c(=O)[nH]1)N1CCC(n2c(=O)[nH]c3cc(Cl)ccc32)CC1 [Example 82]
2. O=C(CCc1nc2ncccc2c(=O)[nH]1)N[C@H]1CC[C@H](c2nnc(-c3ccccc3)o2)CC1 [Example 81]

A:
[99.4, 8450]

Please supply IC50 for each of the following items, keeping them in order.
1. O=C(CCCc1nc2ccccc2c(=O)[nH]1)N[C@H]1CC[C@H](c2nnc(-c3ccc(F)cc3)o2)CC1 [Example 28]
2. O=C(CCc1nc2ccccc2c(=O)[nH]1)N[C@H]1CC[C@H](c2nnc(-c3ncccn3)o2)CC1 [Example 133]
3. N#Cc1ccc2c(c1)[nH]c(=O)n2C1CCN(C(=O)CCCc2nc3ccccc3c(=O)[nH]2)CC1 [Example 68]
4. O=C(CCCc1nc2ccccc2c(=O)[nH]1)N[C@H]1CC[C@H](Oc2ccc(F)cc2)CC1 [Example 77]
5. O=C(CCCc1nc2ccccc2c(=O)[nH]1)N[C@H]1CC[C@H](Oc2ccncc2)CC1 [Example 70]
6. O=C(CCCc1nc2ccccc2c(=O)[nH]1)N[C@H]1CC[C@H](c2nnc(-c3ccncc3)o2)CC1 [Example 33]

A:
[1760, 1870, 227, 1820, 1810, 1140]

Batch of 5 compounds: report IC50 for each.
1. COc1cccc(-c2nnc(C3CCN(C(=O)CCCc4nc5ccccc5c(=O)[nH]4)CC3)o2)c1 [Example 24]
2. O=C(CCCc1nc2ccccc2c(=O)[nH]1)N1CCC(N2C(=O)Cc3ccccc32)CC1 [Example 43]
3. O=C(CCSc1nc2ccccc2c(=O)[nH]1)N1CCC(c2nnc(-c3ccccc3)o2)CC1 [Example 83]
4. O=C(CCc1nc2ccccc2c(=O)[nH]1)N[C@H]1CC[C@H](c2nnc(-c3ccccc3Cl)o2)CC1 [Example 128]
5. O=C(CCc1nc2ccccc2c(=O)[nH]1)N[C@H]1CC[C@H](c2nnc(Cc3ccccc3)o2)CC1 [Example 139]

A:
1. 1110
2. 1060
3. 345
4. 276
5. 1130

====

Molecular target: PARP1 (Homo sapiens (Human), UniProt P09874)
Sequence (P09874 whole entry): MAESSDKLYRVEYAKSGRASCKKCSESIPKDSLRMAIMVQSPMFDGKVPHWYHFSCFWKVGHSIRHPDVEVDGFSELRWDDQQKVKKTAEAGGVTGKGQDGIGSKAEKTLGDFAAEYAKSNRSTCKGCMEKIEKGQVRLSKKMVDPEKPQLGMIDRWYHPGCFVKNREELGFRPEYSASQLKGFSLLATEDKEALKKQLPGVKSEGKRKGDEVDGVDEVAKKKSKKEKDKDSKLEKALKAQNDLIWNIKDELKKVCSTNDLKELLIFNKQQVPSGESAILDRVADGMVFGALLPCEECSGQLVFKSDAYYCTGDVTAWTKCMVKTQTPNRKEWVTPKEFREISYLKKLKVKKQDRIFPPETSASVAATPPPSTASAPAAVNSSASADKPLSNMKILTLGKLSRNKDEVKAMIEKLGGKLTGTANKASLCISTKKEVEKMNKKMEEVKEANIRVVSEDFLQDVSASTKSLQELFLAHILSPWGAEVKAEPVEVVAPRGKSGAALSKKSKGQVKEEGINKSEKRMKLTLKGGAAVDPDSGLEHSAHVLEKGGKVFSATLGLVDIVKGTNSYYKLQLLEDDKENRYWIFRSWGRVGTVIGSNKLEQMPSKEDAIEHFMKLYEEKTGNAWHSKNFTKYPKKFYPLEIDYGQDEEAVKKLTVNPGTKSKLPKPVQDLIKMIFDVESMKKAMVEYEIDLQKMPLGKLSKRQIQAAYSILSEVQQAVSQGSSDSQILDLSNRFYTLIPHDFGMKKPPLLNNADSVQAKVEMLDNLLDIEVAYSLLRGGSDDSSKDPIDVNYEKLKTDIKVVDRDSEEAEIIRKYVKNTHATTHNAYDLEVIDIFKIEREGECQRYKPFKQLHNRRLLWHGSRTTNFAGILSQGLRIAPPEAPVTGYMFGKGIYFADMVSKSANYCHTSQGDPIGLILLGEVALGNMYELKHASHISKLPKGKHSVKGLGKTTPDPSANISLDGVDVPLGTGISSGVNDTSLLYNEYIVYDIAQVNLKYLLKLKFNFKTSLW
Rule for this label: criterion met means IC50 is less than 3 µM; criterion not met means IC50 is at least 3 µM.

Solved cases below.
[[record]]
entry_smiles = "O=C(CCCc1nc2ccccc2c(=O)[nH]1)N1CCC(c2nnc(-c3ccccc3Cl)o2)CC1"
system = "PARP1 (Homo sapiens (Human), UniProt P09874)"
qualitative_label = "criterion not met"

[[record]]
entry_smiles = "O=C(CCCSc1nc2ccccc2c(=O)[nH]1)N[C@H]1CC[C@H](c2nnc(-c3ccccc3)o2)CC1"
system = "PARP1 (Homo sapiens (Human), UniProt P09874)"
qualitative_label = "criterion met"

[[record]]
entry_smiles = "O=C(CCSc1nc2ccccc2c(=O)[nH]1)N[C@H]1CC[C@H](Oc2ccncc2)CC1"
system = "PARP1 (Homo sapiens (Human), UniProt P09874)"
qualitative_label = "criterion met"

[[record]]
entry_smiles = "O=C(CCc1nc2ccccc2c(=O)[nH]1)N[C@H]1CC[C@H](c2nnc(-c3ccccc3F)o2)CC1"
system = "PARP1 (Homo sapiens (Human), UniProt P09874)"
qualitative_label = "criterion not met"

[[record]]
entry_smiles = "O=C(CCc1nc2ccccc2c(=O)[nH]1)N[C@H]1CC[C@H](c2nnc(C3CCCCC3)o2)CC1"
system = "PARP1 (Homo sapiens (Human), UniProt P09874)"
qualitative_label = "criterion not met"


Q: IC50 strictly < 3 µM for this compound? O=C(CCc1nc2ccccc2c(=O)[nH]1)N[C@H]1CC[C@H](c2nnc(-c3ccccc3)o2)CC1
A: criterion met
